System: LXRa:RXRa (NR concentration 270 nM, RXRa partner concentration 90 nM)
ASSAY PROCEDURE: PBM binding z-score (relative to random genomic background probes); higher = stronger binding; sequences stand for … in GC…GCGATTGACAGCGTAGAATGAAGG
Binary call on PBM binding z-score: 1 (yes) from 2 upward, 0 (no) beneath that.

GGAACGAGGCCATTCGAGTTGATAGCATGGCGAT; 0 (no)

Does "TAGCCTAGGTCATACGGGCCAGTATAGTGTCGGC" have a reported PBM binding z-score of at least 2?
1 (yes)

Does "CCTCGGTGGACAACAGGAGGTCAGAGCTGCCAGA" have a reported PBM binding z-score of at least 2?
0 (no)

Does "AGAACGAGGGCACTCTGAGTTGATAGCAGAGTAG" have a reported PBM binding z-score of at least 2?
0 (no)

Does "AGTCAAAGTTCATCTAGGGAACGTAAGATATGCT" have a reported PBM binding z-score of at least 2?
1 (yes)
